// data source = patent US12478628B2

- test.system: chimeric Gal4-DBD human GCNF-LBD (Homo sapiens, UniProt Q15406)
- assay.comment: Luciferase cotransfection reporter assay in HEK293 cells
- measurement.parameters: read-out: IC50, suppression of GCNF transactivation
pIC50: −log10 of the molar value.
experimental.endpoint: pIC50

molecule="Cc1ccc(-n2ncc3c(N4CCOCC4)nc(NCc4ccco4)nc32)cc1 [Ligand 34]" experimental_endpoint=pIC50 numeric_readout=5.96
molecule="O=C(Cn1cc(S(=O)(=O)c2ccccc2)c2ccccc21)N1CCc2ccccc21 [Ligand 80]" experimental_endpoint=pIC50 numeric_readout=6.50

---

- test.system: GCNF LBD (Homo sapiens, UniProt Q15406)
- Construct: Human GCNF (NR6A1) LBD (residues 248-480); made in house; host or cells: E. coli BL(21) DE3
- Sequence (Q15406 248-480): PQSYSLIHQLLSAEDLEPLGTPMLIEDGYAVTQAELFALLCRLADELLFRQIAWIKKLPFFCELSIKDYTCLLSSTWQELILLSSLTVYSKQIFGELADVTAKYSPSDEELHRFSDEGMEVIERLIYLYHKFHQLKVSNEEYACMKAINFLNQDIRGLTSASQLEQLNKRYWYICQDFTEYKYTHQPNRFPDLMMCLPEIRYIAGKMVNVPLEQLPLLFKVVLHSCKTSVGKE
- assay.comment: Differential scanning fluorimetry (DSF) of GCNF LBD
- Type: binding
- measurement.parameters: additional ligand screening
Each item that follows carries a reported change in Tm of GCNF.
experimental.endpoint: change in Tm of GCNF (°C)

compound=COc1ccc(NC(=O)N2CCC3(CC2)N=C(SCc2ccccc2)C(c2ccccc2)=N3)cc1OC numeric_readout=2.3
compound=CCCCCn1c(SCC(=O)CC(=O)OCC)nc2cc(C(=O)NCc3ccco3)ccc2c1=O numeric_readout=0.8
compound="CC(=O)Nc1ccc(NCC(O)Cn2c3ccccc3n3c(=O)cc(C)c(C#N)c23)cc1 (stereo not drawn)" numeric_readout=1.0
compound=COC(=O)COc1cccc2c(=O)n(CC(=O)NCCc3ccc(OC)c(OC)c3)ccc12 numeric_readout=0.8
compound=O=C1CCCC2=C1C(c1ccc(O)cc1)C1=C(CCCC1=O)O2 numeric_readout=0.9
compound="CCOC(=O)C(C)Oc1cccc2c(=O)n(CC(=O)Nc3c(C)cc(C)cc3C)ccc12 (stereo not drawn)" numeric_readout=1.6
